Molecular target: Ectonucleoside triphosphate diphosphohydrolase 3 (Homo sapiens)
Sequence (whole entry): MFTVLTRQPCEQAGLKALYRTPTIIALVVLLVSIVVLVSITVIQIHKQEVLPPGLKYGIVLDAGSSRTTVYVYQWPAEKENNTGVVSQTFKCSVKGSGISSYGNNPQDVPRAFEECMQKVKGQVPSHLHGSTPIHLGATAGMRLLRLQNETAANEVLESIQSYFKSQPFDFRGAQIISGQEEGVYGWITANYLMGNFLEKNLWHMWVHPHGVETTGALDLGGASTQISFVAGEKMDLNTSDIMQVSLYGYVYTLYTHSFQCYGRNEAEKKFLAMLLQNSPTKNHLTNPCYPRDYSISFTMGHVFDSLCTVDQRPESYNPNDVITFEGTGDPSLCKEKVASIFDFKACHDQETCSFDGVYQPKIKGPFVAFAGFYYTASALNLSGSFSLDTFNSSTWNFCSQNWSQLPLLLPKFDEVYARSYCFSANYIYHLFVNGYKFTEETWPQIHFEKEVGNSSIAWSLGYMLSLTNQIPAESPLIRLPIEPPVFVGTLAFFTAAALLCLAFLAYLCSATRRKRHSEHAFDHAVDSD
Assay: Inhibition of human NTPDase3 assessed as amount of inorganic phosphate released using ATP as the substrate preincubated at 100 uM for 3 mins before substrate addition after 15 mins by malachite green reagent method
EXPERIMENTAL_READOUT: inhibition (%)

>  <SMILES_INPUT>
B[P@@](=O)(OC[C@H]1O[C@@H](n2cnc3c(N)ncnc32)[C@H](O)[C@@H]1O)OP(=O)(O)C(Cl)(Cl)P(=O)(O)O

>  <ASSAYED_TARGET>
Ectonucleoside triphosphate diphosphohydrolase 3 (Homo sapiens)

>  <EXPERIMENTAL_READOUT>
inhibition

>  <UNITS_LABEL>
%

>  <READING>
50

$$$$
>  <SMILES_INPUT>
B[P@](=O)(OC[C@H]1O[C@@H](n2cnc3c(N)nc(SC)nc32)[C@H](O)[C@@H]1O)OP(=O)(O)C(F)(F)P(=O)(O)O

>  <ASSAYED_TARGET>
Ectonucleoside triphosphate diphosphohydrolase 3 (Homo sapiens)

>  <EXPERIMENTAL_READOUT>
inhibition

>  <UNITS_LABEL>
%

>  <READING>
50

$$$$

###

Listing of recorded inhibition by entry.
Biological target: Ectonucleoside triphosphate diphosphohydrolase 3 (Homo sapiens) (UniProt O75355)
Sequence (whole entry): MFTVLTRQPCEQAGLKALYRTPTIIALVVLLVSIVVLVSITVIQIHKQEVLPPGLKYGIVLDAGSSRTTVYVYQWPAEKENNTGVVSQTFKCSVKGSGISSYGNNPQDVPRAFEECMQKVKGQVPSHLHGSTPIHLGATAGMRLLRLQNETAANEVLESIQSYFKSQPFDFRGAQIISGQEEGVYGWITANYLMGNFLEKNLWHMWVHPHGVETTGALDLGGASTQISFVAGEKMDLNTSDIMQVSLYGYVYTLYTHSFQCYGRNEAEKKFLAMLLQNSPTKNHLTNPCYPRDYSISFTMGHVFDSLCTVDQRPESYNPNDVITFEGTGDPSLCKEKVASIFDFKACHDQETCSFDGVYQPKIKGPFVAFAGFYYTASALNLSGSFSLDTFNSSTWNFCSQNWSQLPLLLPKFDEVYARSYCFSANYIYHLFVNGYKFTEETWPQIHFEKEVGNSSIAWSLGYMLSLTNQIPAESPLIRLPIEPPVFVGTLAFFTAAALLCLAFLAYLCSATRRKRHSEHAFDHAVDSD
Assay: Inhibition of human NTPDase3 assessed as amount of inorganic phosphate released using ATP as the substrate preincubated at 100 uM for 3 mins before substrate addition after 15 mins by malachite green reagent method

>  <SMILES_INPUT>
B[P@@](=O)(OC[C@H]1O[C@@H](n2cnc3c(N)nc(SC)nc32)[C@H](O)[C@@H]1O)OP(=O)(O)C(Cl)(Cl)P(=O)(O)O

>  <READING>
50%

$$$$
>  <SMILES_INPUT>
B[P@@](=O)(OC[C@H]1O[C@@H](n2cnc3c(N)ncnc32)[C@H](O)[C@@H]1O)OP(=O)(O)CP(=O)(O)O

>  <READING>
< 18%

$$$$
>  <SMILES_INPUT>
B[P@@](=O)(OC[C@H]1O[C@@H](n2cnc3c(N)nc(SC)nc32)[C@H](O)[C@@H]1O)OP(=O)(O)CP(=O)(O)O

>  <READING>
< 18%

$$$$

Please look at the following compound next.
Qu. Supply measured inhibition of `B[P@](=O)(OC[C@H]1O[C@@H](n2cnc3c(N)ncnc32)[C@H](O)[C@@H]1O)OP(=O)(O)CP(=O)(O)O` in your reply.
Ans. < 18%

###

molecular target: Ectonucleotide pyrophosphatase/phosphodiesterase family member 3 (Homo sapiens); assay: Inhibition of NPP3 in human HTB-85 cells assessed as production of p-nitrophenol using pnp-TMP at 100 uM measured after 20 mins by spectrophotometry; format: cell-based
EXPERIMENTAL_READOUT: inhibition (%)

>  <SMILES_INPUT>
B[P@](=O)(OC[C@H]1O[C@@H](n2cnc3c(N)nc(SC)nc32)[C@H](O)[C@@H]1O)OP(=O)(O)C(Cl)(Cl)P(=O)(O)O

>  <ASSAYED_TARGET>
Ectonucleotide pyrophosphatase/phosphodiesterase family member 3 (Homo sapiens)

>  <UNITS_LABEL>
%

>  <inhibition>
41

$$$$
>  <SMILES_INPUT>
CSc1nc(N)c2ncn([C@@H]3O[C@H](COP(=O)(O)OP(=O)(O)C(F)(F)P(=O)(O)O)[C@@H](O)[C@H]3O)c2n1

>  <ASSAYED_TARGET>
Ectonucleotide pyrophosphatase/phosphodiesterase family member 3 (Homo sapiens)

>  <UNITS_LABEL>
%

>  <inhibition>
41

$$$$
>  <SMILES_INPUT>
B[P@](=O)(OC[C@H]1O[C@@H](n2cnc3c(N)nc(SC)nc32)[C@H](O)[C@@H]1O)OP(=O)(O)CP(=O)(O)O

>  <ASSAYED_TARGET>
Ectonucleotide pyrophosphatase/phosphodiesterase family member 3 (Homo sapiens)

>  <UNITS_LABEL>
%

>  <inhibition>
90

$$$$
>  <SMILES_INPUT>
B[P@@](=O)(OC[C@H]1O[C@@H](n2cnc3c(N)ncnc32)[C@H](O)[C@@H]1O)OP(=O)(O)CP(=O)(O)O

>  <ASSAYED_TARGET>
Ectonucleotide pyrophosphatase/phosphodiesterase family member 3 (Homo sapiens)

>  <UNITS_LABEL>
%

>  <inhibition>
90

$$$$
>  <SMILES_INPUT>
CSc1nc(N)c2ncn([C@@H]3O[C@H](COP(=O)(O)C(F)(F)P(=O)(O)O)[C@@H](O)[C@H]3O)c2n1

>  <ASSAYED_TARGET>
Ectonucleotide pyrophosphatase/phosphodiesterase family member 3 (Homo sapiens)

>  <UNITS_LABEL>
%

>  <inhibition>
41

$$$$

(P) B[P@](=O)(OC[C@H]1O[C@@H](n2cnc3c(N)nc(SC)nc32)[C@H](O)[C@@H]1O)OP(=O)(O)C(F)(F)P(=O)(O)O
(Q) B[P@@](=O)(OC[C@H]1O[C@@H](n2cnc3c(N)nc(SC)nc32)[C@H](O)[C@@H]1O)OP(=O)(O)C(Cl)(Cl)P(=O)(O)O
Qu. Select one. Lower inhibition: P or Q Identify your selection by its label.
Ans. P
(P: 41%, Q: 90%)

###

molecular target: Ectonucleoside triphosphate diphosphohydrolase 1 (Homo sapiens) (UniProt P49961); assay: Inhibition of human NTPDase1 assessed as amount of inorganic phosphate released using ATP as the substrate preincubated at 100 uM for 3 mins before substrate addition after 15 mins by malachite green reagent method
Sequence (P49961 whole entry): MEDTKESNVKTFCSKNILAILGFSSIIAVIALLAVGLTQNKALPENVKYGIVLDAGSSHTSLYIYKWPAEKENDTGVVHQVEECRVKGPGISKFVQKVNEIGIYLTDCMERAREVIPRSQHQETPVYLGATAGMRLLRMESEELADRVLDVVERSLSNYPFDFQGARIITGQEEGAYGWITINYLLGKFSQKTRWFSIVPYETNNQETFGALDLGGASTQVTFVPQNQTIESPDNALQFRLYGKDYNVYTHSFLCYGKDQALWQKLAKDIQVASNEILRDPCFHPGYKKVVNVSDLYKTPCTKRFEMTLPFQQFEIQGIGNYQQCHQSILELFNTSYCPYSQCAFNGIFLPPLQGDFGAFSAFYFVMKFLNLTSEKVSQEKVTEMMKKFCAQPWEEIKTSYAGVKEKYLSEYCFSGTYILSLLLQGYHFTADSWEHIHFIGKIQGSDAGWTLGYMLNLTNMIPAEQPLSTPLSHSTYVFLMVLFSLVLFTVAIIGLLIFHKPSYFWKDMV
Listed below: inhibition values for each entry.

Qu. Given `CSc1nc(N)c2ncn([C@@H]3O[C@H](COP(=O)(O)OP(=O)(O)CP(=O)(O)O)[C@@H](O)[C@H]3O)c2n1` , respond with its inhibition.
Ans. < 18%

Qu. Identify measured inhibition associated with `B[P@](=O)(OC[C@H]1O[C@@H](n2cnc3c(N)ncnc32)[C@H](O)[C@@H]1O)OP(=O)(O)CP(=O)(O)O`
Ans. < 18%

Qu. Consider the molecule `B[P@@](=O)(OC[C@H]1O[C@@H](n2cnc3c(N)ncnc32)[C@H](O)[C@@H]1O)OP(=O)(O)CP(=O)(O)O` and give its recorded inhibition.
Ans. < 18%

Qu. Note inhibition for the molecule shown: `B[P@](=O)(OC[C@H]1O[C@@H](n2cnc3c(N)nc(SC)nc32)[C@H](O)[C@@H]1O)OP(=O)(O)CP(=O)(O)O`
Ans. < 18%

Qu. Consider the molecule `B[P@@](=O)(OC[C@H]1O[C@@H](n2cnc3c(N)ncnc32)[C@H](O)[C@@H]1O)OP(=O)(O)C(Cl)(Cl)P(=O)(O)O` and give its recorded inhibition.
Ans. 50%

Qu. // fetch inhibition given entry `B[P@@](=O)(OC[C@H]1O[C@@H](n2cnc3c(N)nc(SC)nc32)[C@H](O)[C@@H]1O)OP(=O)(O)CP(=O)(O)O`
Ans. < 18%

Qu. Tell me measured inhibition for `CSc1nc(N)c2ncn([C@@H]3O[C@H](COP(=O)(O)C(F)(F)P(=O)(O)O)[C@@H](O)[C@H]3O)c2n1` please.
Ans. < 18%

Qu. Answer with the recorded inhibition of `B[P@@](=O)(OC[C@H]1O[C@@H](n2cnc3c(N)nc(SC)nc32)[C@H](O)[C@@H]1O)OP(=O)(O)C(Cl)(Cl)P(=O)(O)O` only.
Ans. 50%

Qu. Identify the reported inhibition for the following entry. `B[P@@](=O)(OC[C@H]1O[C@@H](n2cnc3c(N)nc(SC)nc32)[C@H](O)[C@@H]1O)OP(=O)(O)C(F)(F)P(=O)(O)O`
Ans. 50%
